Listed binders paired with reported Binding (FOI)
# ASSAYED_TARGET: T1, human CD3 expressed on cells (Jurkat cells; human primary T cells) (human, UniProt P07766 23-207; P04234 22-171; P09693 23-182)
# T1 construct: whole, on cells
# T1 sequence (P07766 23-207, chain 1 of 3): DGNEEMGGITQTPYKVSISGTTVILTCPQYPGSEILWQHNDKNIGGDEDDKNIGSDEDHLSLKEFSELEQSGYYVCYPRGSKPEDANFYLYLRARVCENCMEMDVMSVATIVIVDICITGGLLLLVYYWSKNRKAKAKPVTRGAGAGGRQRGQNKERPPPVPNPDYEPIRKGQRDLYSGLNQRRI
# T1 sequence (P04234 22-171, chain 2 of 3): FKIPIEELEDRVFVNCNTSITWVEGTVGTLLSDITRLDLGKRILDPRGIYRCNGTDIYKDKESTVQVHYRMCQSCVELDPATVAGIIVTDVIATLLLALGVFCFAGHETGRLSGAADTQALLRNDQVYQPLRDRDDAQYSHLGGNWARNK
# T1 sequence (P09693 23-182, chain 3 of 3): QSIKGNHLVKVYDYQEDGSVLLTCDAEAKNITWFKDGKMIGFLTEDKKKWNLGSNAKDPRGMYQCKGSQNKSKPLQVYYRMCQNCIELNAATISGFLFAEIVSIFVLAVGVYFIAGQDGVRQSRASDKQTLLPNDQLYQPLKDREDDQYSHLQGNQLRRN
# MEASUREMENT_PROTOCOL: flow cytometry, 25 nM, human primary T cells
Provide only the numeric value, understood in FOI.

Consider the reported Binding (FOI) for these binders:
- mAb 248 (antibody, V domains shown, VH/VL only) VH: QVKLVESGGGVVQPGRSLRLSCVASGFTFSGYGMHWVRQAPGKGLEWVAIIYYDGKNKYYVDSVKGRFTISRDNSKNTLYLQLNSLRAEDTAVYYCVRGPGYNWFDHWGQGTLVTVAS VL: EIVLTQSPDFQSVTPKEKVTITCRASQSIGSSLHWYQQKPDQSPKLLIKYASQSFSGVPSRFSGSGSGTDFTLTINSLEAEDAATYYCHQSSSLPYTFGQGTKLEIK: 203
- mAb 213 (antibody, V domains shown, VH/VL only) VH: QEQLVESGGGVVQPGGSLRLSCAASGFTFSGYGMHWVRQAPGKGLEWVAIIWYNGRKTYYAESVKGRFTISRDNSKNTLSLQMNSLRVEDTAVYYCTTGKGYNWFDPWGQGTLVTVSS VL: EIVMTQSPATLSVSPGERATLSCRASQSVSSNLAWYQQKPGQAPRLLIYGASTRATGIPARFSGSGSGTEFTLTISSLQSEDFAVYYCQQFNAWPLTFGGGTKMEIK: 248
- mAb 240 (antibody, V domains shown, VH/VL only) VH: QGKLVESGGGVVQPGRSLRLSCVASGFTFSGYGMHWVRQAPNKGLEWVAIIYYDGKNKYYADSVKGRFTISRDNSKNTLYLQLNSLRAEDTAVYYCVRGPGYNWFDPWGQGTLVTVSS VL: EIVLTQSPDFQSVTPKEKVTITCRASQNIGSSLHWYQQKPDQSPKLLIKHASQSFSGVPSRFSGSGSGTDFTLTINSLEAEDAATYYCHQSSSLPYTFGQGTKLEIK: 216
- mAb 218 (antibody, V domains shown, VH/VL only) VH: QVQLVESGGGVVQPGRSLRLSCAASGFTFSGYGMHWVRQAPGKGLEWVAIIYYNGNNRKYADSVRGRFTISRDNSKNTVSLQMNSLRVEDTAIYYCTRGDGYNWFVTWGQGTLVTVSS VL: EIVMTQSPATLSVSPGERATLSCRASQSVSSNLAWYYQKPGQAPRLLIYGASTRATGIPVRFSGSGSGTEFTLTISSLQSEDFAVYYCQQYNNWPLTFGGGTKVEIK: 192
- mAb 173 (antibody, V domains shown, VH/VL only) VH: EVQLVESGGGLVQPGRSLRLSCAASGFTFDDYTMHWVRQVPGKGLEWVSDISWNSGSVGYADSVKGRFTISRDNAKNSLYLQMNSLRAEDTALYYCVKDSSGYGHYFHYYMDVWGKGTTVTVSS VL: DIQMTQSPSSLSASVGDRVTITCRASQSISNYLNWYQVKPGKAPKVLIYAASSLQSGVPSRFSGSGSGTDFTLTISSLQPEDFVSYYCHQSYNTPITFGQGTRLEIK: 169
- mAb 191 (antibody, V domains shown, VH/VL only) VH: QVQLVESGGGVVQPGRSLRLSCAASGFTFSGYGMHWVRQAPGKGLEWVAIIYYNGKKEYYADSVKGRFTISRDNSKNTLYLQMNSLRAEDTAVYYCTRGEGYNWFDPWGQGTLVTVSS VL: EIVMTQSPATLSVSPGERATLSCRASQSVSSNLAWYQQKPGQAPRLLIYGASTRATGIPARFSGSGSGTDFTLTISSLQSEHFAVYYCQQYTNWPLTFGGGTKVEIK: 212

Here is another binder to look at.
IN: Looking for the measured Binding (FOI) of mAb 172 (antibody, V domains shown, VH/VL only) VH: EVQLVESGGGLVQPGRSLRLSCTTSGFTFDDYTMHWVRQVPGKGLEWVSDISWNSGSVGYADSVKGRFTISRDNAKNSLYLQMNSLRAEDTALYYCVKDSSGYGHYFHYYMDVWGKGTTVTVSS VL: DIQMTQSPSSLSASVGDRVTITCRASQSISNYLNWYQVKPGKAPKVLIYAASSLQSGVPSRFSGSGSGTDFTLTISSLQPEDFVSYYCHQSYNAPITFGQGTRLESK , can you help?
OUT: 167
